Origin of values: the RNAGym collection of RNA variant scans (doi:10.7554/elife.80360)

Assign self-cleavage to each entry below.
B1: CPEB3 Ribozyme (parent)
chain: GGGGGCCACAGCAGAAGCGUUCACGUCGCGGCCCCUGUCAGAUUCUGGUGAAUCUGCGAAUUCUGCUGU

Variants of: B1
assay.details: self-cleavage, relative activity (ratio to wild type); higher = more cleavage; co-transcriptional
Keep it simple and answer with nothing but the number.

Bench note: what self-cleavage did C27G U64C show? 0.254

Bench note: what self-cleavage did U44A G56U show? 0.677

Bench note: what self-cleavage did C9U C22A show? 0.226

Bench note: what self-cleavage did G3U G50A show? 0.172

Bench note: what self-cleavage did U21C C35A show? 0.229

Bench note: what self-cleavage did C35U A60C show? 0.368

Bench note: what self-cleavage did U53A U67C show? 0.975

Bench note: what self-cleavage did G2U G5A show? 0.0678

Bench note: what self-cleavage did C18A A40C show? 0.197

Bench note: what self-cleavage did G25A C35A show? 0.21

Bench note: what self-cleavage did C27G G41C show? 0.176

Bench note: what self-cleavage did G30A U36C show? 0.449

Bench note: what self-cleavage did A51G U69C show? 1.06

Bench note: what self-cleavage did G5A A16C show? 0.134

Bench note: what self-cleavage did A42G U53C show? 0.891
